measurement-target: T1, non-cleaved H3 tail peptide (H3 18-37), methylated at K27 (not fully specified; methylated K27 (degree of methylation shown only in FIG. 7C); biotinylated for the pull-down)
T1 peptide: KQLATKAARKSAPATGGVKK
assay-name: fluorescence anisotropy

{"columns": ["binder", "Kd"],
 "data": [
  ["chromodomain of mouse CBX7 (other) MELSAIGEQVFAVESIRKKRVRKGKVEYLVKWKGWPPKYSTWEPEEHILDPRLVMAYEEKEERDRASGYR", "14.5 µM"]
]}
